Hey, just so you know, these numbers are from ChEMBL document CHEMBL1649293.

Quick list: CC50 at 192 h per entry.
# Assay notes: Cytotoxicity against rat Rat2 cells after 8 days by XTT assay
# Type: cell-based
Express the result in µM but write the number alone.

Prompt: What CC50 at 192 h value was documented for this compound, CC(=O)OC[C@H]1O[C@@H](n2c(Br)nc3c(Cl)c(Cl)c(Cl)cc32)[C@H](OC(C)=O)[C@@H]1OC(C)=O ?
Completion: 14.5

Prompt: What CC50 at 192 h value was documented for this compound, CC(=O)OC[C@H]1O[C@@H](n2c(Cl)nc3c(Cl)c(Cl)c(Cl)cc32)[C@H](OC(C)=O)[C@@H]1OC(C)=O ?
Completion: 19.2

Prompt: What CC50 at 192 h value was documented for this compound, OC[C@H]1O[C@@H](n2c(Br)nc3cc(Cl)c(Cl)cc32)[C@H](O)[C@@H]1O ?
Completion: 136

====

# Assay notes: Cytotoxicity against HFF after 8 days by XTT assay
# Type: cell-based
# Condition details: human, HFF cells
Test readout: CC50 at 192 h

Example cases with answers are listed next.
Smiles input: CC(=O)OC[C@H]1O[C@@H](n2c(Br)nc3c(Cl)c(Cl)c(Cl)cc32)[C@H](OC(C)=O)[C@@H]1OC(C)=O
Test readout: CC50 at 192 h
Result: 27.9 µM
--
Smiles input: CC(=O)OC[C@H]1O[C@@H](n2c(Cl)nc3c(Cl)c(Cl)c(Cl)cc32)[C@H](OC(C)=O)[C@@H]1OC(C)=O
Test readout: CC50 at 192 h
Result: 66.7 µM

Prompt: What CC50 at 192 h value was documented for this compound, OC[C@H]1O[C@@H](n2c(Br)nc3cc(Cl)c(Cl)cc32)[C@H](O)[C@@H]1O ?
Completion: 314 µM
